Provide the recorded MIC for the entries that follow.
# Tested on: Streptococcus pneumoniae
# assay-remarks: Antimicrobial activity against penicillin- and erythromycin-resistant Streptococcus pneumoniae
# Assay type: functional
Give your result in µg/mL as a bare value.

Q: // query MIC value for entry CCCCCCCCC/C(=C1\C(=O)CNC1=O)N1CCCCC1
Ans: 16

Q: # repeat for CCCCCCCCCCCCC/C(NCCCN)=C1\C(=O)CN(CCCCCC)C1=O
Ans: 8

Q: # repeat for CCOC(=O)[C@]12CO[C@H](C(C)(C)C)N1C(=O)/C(=C(/CC(F)(F)C(F)(F)C(F)(F)C(F)(F)C(F)(F)F)NCCCN1CCOCC1)C2=O
Ans: 8

###

# Test system: Haemophilus influenzae
# assay-remarks: Antimicrobial activity against LS2 Efflux knock-out Haemophilus influenzae
# Assay type: functional
readout: MIC

Q: // query MIC value for entry CC(=O)NC[C@H]1CN(c2ccc(N3CCOCC3)c(F)c2)C(=O)O1
Ans: 4 µg/mL

Q: # repeat for C/C(NCCOc1ccccc1Cl)=C1/C(=O)[C@@H]2CCCC(=O)N2C1=O
Ans: > 32 µg/mL

Q: # repeat for CCCCCCCCCCC/C(Nc1ccc(N)cc1)=C1\C(=O)CN(CCCCCC)C1=O
Ans: > 32 µg/mL

Q: # repeat for C/C(NCCOc1ccccc1)=C1/C(=O)[C@@H]2CCCC(=O)N2C1=O
Ans: > 32 µg/mL

Q: # repeat for CCCCCCCCCCC/C(Nc1ccc(NC(=O)COCC(=O)O)cc1)=C1\C(=O)CN(CCCCCC)C1=O
Ans: > 64 µg/mL

Q: # repeat for COC(=O)[C@@]12CO[C@@H](C(C)(C)C)N1C(=O)/C(=C(\C)Nc1ccccc1)C2=O
Ans: > 32 µg/mL

Q: # repeat for COC(=O)[C@@]12CO[C@@H](C(C)(C)C)N1C(=O)/C(=C(\C)NCC1CCC3CC1C3(C)C)C2=O (some centres undefined)
Ans: > 32 µg/mL

Q: # repeat for CCCCCCN/C(=C1/C(=O)CNC1=O)c1ccccc1
Ans: > 32 µg/mL

Q: # repeat for CCCCCCCCC/C(NC(C)CCCN(CC)CC)=C1/C(=O)N2[C@@H](C(C)(C)C)OC[C@]2(C(=O)OC)C1=O (some centres undefined)
Ans: > 64 µg/mL

###

# System: Staphylococcus aureus
# assay-remarks: Antimicrobial activity against methicillin-sensitive Staphylococcus aureus ATCC 13709
# Assay type: functional
readout: MIC

Q: // query MIC value for entry CCCCCCCCC/C(=C1\C(=O)CNC1=O)N1CCCCC1
Ans: 16 µg/mL

Q: # repeat for CCOC(=O)[C@]12CO[C@H](C(C)(C)C)N1C(=O)/C(=C(\C)NCc1ccc(C)o1)C2=O
Ans: > 32 µg/mL

Q: # repeat for CCCC(=O)N1CC(=O)/C(=C(\CCCCc2ccccc2)NC2CC(C)(C)N(C)C(C)(C)C2)C1=O
Ans: > 32 µg/mL

Q: # repeat for CCOC(=O)[C@]12CO[C@H](C(C)(C)C)N1C(=O)/C(=C(/CC13CC4CC(C)(CC(C)(C4)C1)C3)NC(C)CCCN(CC)CC)C2=O (stereo partly drawn)
Ans: > 32 µg/mL

Q: # repeat for C/C(NCCOc1ccccc1Cl)=C1/C(=O)[C@@H]2CCCC(=O)N2C1=O
Ans: > 32 µg/mL

Q: # repeat for CCCCCCCCCCC/C(NCCCOC(C)C)=C1/C(=O)N[C@@H](CCCC(=O)NCCCOC(C)C)C1=O
Ans: > 64 µg/mL

Q: # repeat for CCCCCC/C(Nc1ccc(N2CCOCC2)cc1)=C1\C(=O)CNC1=O
Ans: > 32 µg/mL

Q: # repeat for CSCCC1C(=O)/C(=C(\CC23CC4CC(CC(C4)C2)C3)NCC(C)(C)CN(C)C)C(=O)N1C(C)=O (stereo not drawn)
Ans: > 32 µg/mL

Q: # repeat for CCCCCCCCCCC/C(NCCCOC(C)C)=C1\C(=O)CNC1=O
Ans: 16 µg/mL

Q: # repeat for CCOC(=O)[C@]12CO[C@H](C(C)(C)C)N1C(=O)/C(=C(\C)NCCOc1ccccc1)C2=O
Ans: 64 µg/mL

Q: # repeat for CC(C)(C)[C@H]1OC[C@@H]2C(=O)/C(=C(/NCCCCN)c3ccccc3)C(=O)N21
Ans: > 32 µg/mL

Q: # repeat for CCOC(=O)[C@]12CO[C@H](C(C)(C)C)N1C(=O)/C(=C(/CC13CC4CC(CC(C4)C1)C3)NCCCN1CCOCC1)C2=O
Ans: > 64 µg/mL

Q: # repeat for CCCCCCCCCC/C(NCCCOC(C)C)=C1\C(=O)C(CCSC)N(C(C)=O)C1=O (stereo not drawn)
Ans: > 32 µg/mL

Q: # repeat for COC(=O)[C@@]12CO[C@@H](C(C)(C)C)N1C(=O)/C(=C(\C)NCC1CCC3CC1C3(C)C)C2=O (stereo partly drawn)
Ans: > 32 µg/mL

Q: # repeat for CCCCCCCCCCC/C(NCCCOC(C)C)=C1\C(=O)[C@@H]2CCCC(=O)N2C1=O
Ans: > 64 µg/mL

Q: # repeat for COC(=O)[C@]12CO[C@H](C(C)(C)C)N1C(=O)/C(=C(/CCCOc1ccccc1)NCCCOC(C)C)C2=O
Ans: > 32 µg/mL

Q: # repeat for O=C(O)c1cn(C2CC2)c2cc(N3CCNCC3)c(F)cc2c1=O [CIPROFLOXACIN]
Ans: 0.12 µg/mL

Q: # repeat for COCCOC(=O)[C@]12CO[C@H](C(C)(C)C)N1C(=O)/C(=C(\C)NCCOc1ccccc1)C2=O
Ans: > 32 µg/mL
